molecular target: E. coli DHFR A26T mutant (Escherichia coli, UniProt P0ABQ4, A26T); experiment: biochemical; settings: Ki value, E. coli A26T DHFR; Ki converted from IC50
pKi values for the compounds below.
Reminder that pKi is minus the log10 of a molar concentration.

smilescode=COc1cc([C@H]2CC(=O)Nc3nc(N)[nH]c(=O)c32)ccc1O measurementlabel=pKi val=5.31

Result for Cn1c(=O)[nH]c(O)c(C2=NN[C@H](c3cccc4ccccc34)C2)c1=O , tested on E. coli DHFR A26T mutant (Escherichia coli, UniProt P0ABQ4, A26T), pKi: 5.46

Result for COc1ccc([C@@H]2CC(c3c(O)[nH]c(=O)n(C)c3=O)=NN2)cc1OC , tested on E. coli DHFR A26T mutant (Escherichia coli, UniProt P0ABQ4, A26T), pKi: 5.61

Hey, just so you know, these numbers are from paper PMC8331180.
